Taken from patent US20130224224A1.

IC50 for assorted binders
- measurement_target: T1, cynomolgus CX3CR1 (cynomolgus, UniProt P49238 1-355 (human entry))
- T1 construct: transiently expressed on HEK293T cells; also called cyCX3CR1; cyno CX3CR1
- T1 chain: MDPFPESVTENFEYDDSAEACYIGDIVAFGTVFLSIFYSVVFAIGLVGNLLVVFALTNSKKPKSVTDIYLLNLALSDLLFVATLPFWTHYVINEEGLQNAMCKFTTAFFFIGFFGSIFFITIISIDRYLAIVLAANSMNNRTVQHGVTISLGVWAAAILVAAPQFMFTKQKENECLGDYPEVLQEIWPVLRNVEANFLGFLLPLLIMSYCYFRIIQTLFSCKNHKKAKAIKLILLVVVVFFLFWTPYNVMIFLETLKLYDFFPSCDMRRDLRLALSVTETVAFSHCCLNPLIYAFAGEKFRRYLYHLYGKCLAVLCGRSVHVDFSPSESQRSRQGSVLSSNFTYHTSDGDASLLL
- method: A647-fractalkine competition FACS, HEK293T cynomolgus CX3CR1
Please respond with the number in nM and leave the unit unwritten.

Sample answers from the record:
>  <binder>
CX3CR1BIIPMP54G3 (VHH, also called 54G03; not shown: C-terminal c-myc and His6 tags) VHH: EVQLVESGGGSVQAGESLRLSCAASGSIFSSNAMAWYRQAPGKQRDLVALINSVGITKYADSVKGRFTISRDNAKNTVYLQMNSLKPEDTAVYYCTSDPRRGWDTRYWGQGTLVTVSS

>  <unit_descriptor>
nM

>  <IC50>
470

$$$$
>  <binder>
CX3CR1BIIPMP54D8 (VHH, also called 54D08; CX3CR1BII54D08; not shown: C-terminal c-myc and His6 tags) VHH: EVQLVESGGGSVQAGGSLRLSCAASGSIFSSNAMAWYRQAPGKQRDLVAGINSVGITKYADSVKGRFTISRDNAKNTVYLQMNSLKPEDTAVYYCTSDPRRGWDTRYWGQGTLVTVSS

>  <unit_descriptor>
nM

>  <IC50>
72

$$$$

Consider now this further binder.
For reference, reported IC50 for CX3CR1BIIPMP54A4 (VHH, also called 54A04; not shown: C-terminal c-myc and His6 tags) VHH: EVQLVESGRGSVQAGESLRLSCAASGSIFSSNAMAWYRQAPGKQRDLVAGINSVGITKYADSVKGRFTISRDNAKNTVYLQMNSLKPEDTAVYYCTSDPRRGWDTRYWGQGTQVTVSS stands at 31
